Molecular target: GLIC (Gloeobacter violaceus ligand-gated ion channel) (Gloeobacter violaceus, UniProt Q7NDN8)
Sequence (Q7NDN8 44-359): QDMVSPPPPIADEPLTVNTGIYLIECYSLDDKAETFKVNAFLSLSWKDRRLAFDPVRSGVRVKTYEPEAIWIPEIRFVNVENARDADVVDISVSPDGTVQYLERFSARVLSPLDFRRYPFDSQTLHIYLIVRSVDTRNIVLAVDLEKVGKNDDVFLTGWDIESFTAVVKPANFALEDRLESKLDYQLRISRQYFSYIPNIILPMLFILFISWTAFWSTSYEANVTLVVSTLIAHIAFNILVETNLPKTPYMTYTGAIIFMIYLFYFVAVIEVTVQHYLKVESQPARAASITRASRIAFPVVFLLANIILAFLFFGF
Assay: [3H]AziPm photoaffinity labeling of purified GLIC at pH […] with Edman sequencing
Format: cell-based
pIC50: −log10 of the molar value.
reported_endpoint: pIC50

> print(dat)
                        chem.smiles  reported.endpoint  measurement
1  CC(C)c1ccc(C2(C(F)(F)F)N=N2)cc1O              pIC50         4.29
